target: recombinant human PAI-1 (Homo sapiens, UniProt P05121); construct: purchased Molecular Innovations, Inc; assay: Test Example 2: human PAI-1 inhibitory activity (tPA fluorogenic substrate, pH 7.4 HEPES buffer); assay type: biochemical; details: human PAI-1; compound concentration 10 μM
Sequence (P05121 24-402): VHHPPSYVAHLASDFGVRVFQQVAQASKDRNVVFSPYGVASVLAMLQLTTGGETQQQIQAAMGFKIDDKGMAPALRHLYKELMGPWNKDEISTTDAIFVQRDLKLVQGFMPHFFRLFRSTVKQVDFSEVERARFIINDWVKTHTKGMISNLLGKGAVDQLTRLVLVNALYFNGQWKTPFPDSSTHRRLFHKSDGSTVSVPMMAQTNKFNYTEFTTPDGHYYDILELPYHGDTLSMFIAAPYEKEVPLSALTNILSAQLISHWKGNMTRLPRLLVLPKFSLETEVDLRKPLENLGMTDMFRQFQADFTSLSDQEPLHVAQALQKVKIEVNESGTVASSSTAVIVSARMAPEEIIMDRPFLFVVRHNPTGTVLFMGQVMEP
Assign Inhibition Rate of PAI-1 Activity (%) to each entry below.

For "CCCCOc1ccc(-c2ccc(OC(F)(F)F)cc2)cc1CCC(=O)O" , what is its reported Inhibition Rate of PAI-1 Activity (%)?
>99%

For "CCCCOc1ccc(-c2ccc(OC(F)(F)F)cc2)cc1/C=C/C(=O)O" , what is its reported Inhibition Rate of PAI-1 Activity (%)?
>99%

For "O=C(O)c1cc(-c2ccc(OC(F)(F)F)cc2)ccc1OCc1ccccc1" , what is its reported Inhibition Rate of PAI-1 Activity (%)?
17%

For "CN(C(=O)c1ccc(OC(F)(F)F)cc1)c1ccc(OCc2ccc(C(C)(C)C)cc2)c(CCC(=O)O)c1" , what is its reported Inhibition Rate of PAI-1 Activity (%)?
>99%

For "CC(C)(C)c1ccc(CN(C(=O)C(=O)O)c2ccc(N3CCN(c4ccc(OC(F)(F)F)cc4)CC3)cc2)cc1" , what is its reported Inhibition Rate of PAI-1 Activity (%)?
>99%

For "CC(C)(C)c1ccc(COc2ccc(N3CCN(c4ccc(OC(F)(F)F)cc4)CC3)cc2CCC(=O)O)cc1" , what is its reported Inhibition Rate of PAI-1 Activity (%)?
98%

For "CC(C)(C)c1ccc(COc2ccc(NS(=O)(=O)c3ccc(OC(F)(F)F)cc3)cc2CCC(=O)O)cc1" , what is its reported Inhibition Rate of PAI-1 Activity (%)?
>99%

For "CC(C)(C)c1ccc(N(CC(=O)O)c2ccccc2Oc2ccc(OC(F)(F)F)cc2)cc1" , what is its reported Inhibition Rate of PAI-1 Activity (%)?
97%

====

biological target: recombinant human PAI-1 (Homo sapiens, UniProt P05121); construct: purchased Molecular Innovations, Inc; assay: Test Example 2: human PAI-1 inhibitory activity (tPA fluorogenic substrate, pH 7.4 HEPES buffer); format: biochemical; conditions: human PAI-1; compound concentration 1 μM
Assign a class from recorded Inhibition Rate of PAI-1 Activity (%); defined classes: low value: < 70%; medium value: ≥ 70% and < 90%; high value: ≥ 90%

Hi there! Could you help me figure out the category for "CC(C)(C)c1ccc(Oc2cc(-c3ccc(C(C)(C)C)cc3)ccc2OCC(=O)O)cc1" please?
medium value

Hi there! Could you help me figure out the category for "CCCCOc1ccc(-c2ccc(OC(F)(F)F)cc2)cc1/C=C/C(=O)O" please?
low value

Hi there! Could you help me figure out the category for "CC(C)c1ccc(-c2ccc(/C=C/C(=O)O)c(Sc3ccc(C(C)(C)C)cc3)c2)cc1" please?
high value

Hi there! Could you help me figure out the category for "CC(C)(C)c1ccc(Oc2cc(Oc3ccc(OC(F)(F)F)cc3)ccc2OCC(=O)O)cc1" please?
medium value

Hi there! Could you help me figure out the category for "CCCCOc1ccc(Oc2cc(-c3ccc(OC(F)(F)F)cc3)ccc2OCC(=O)O)cc1" please?
medium value

Hi there! Could you help me figure out the category for "CCCCCCCCCCN(C(=O)C(=O)O)c1ccc(-c2ccc(OC(F)(F)F)cc2)cc1" please?
high value

Hi there! Could you help me figure out the category for O=C(O)C(=O)N(CCCCc1ccccc1)c1cc(-c2ccc(OC(F)(F)F)cc2)ccc1OC1C2CC3CC(C2)CC1C3 (stereo not shown) please?
high value

Hi there! Could you help me figure out the category for "CC(C)(C)c1ccc(Oc2cc(-c3ccc(C(C)(C)C)cc3)ccc2CCC(=O)O)cc1" please?
high value

Hi there! Could you help me figure out the category for CCCCC(C(=O)O)N(Cc1ccc(C(C)(C)C)cc1)c1cccc(-c2ccc(OC(F)(F)F)cc2)c1 (stereo not shown) please?
high value

Hi there! Could you help me figure out the category for "CC(C)(C)c1ccc(Oc2cc(-c3ccc(C(C)(C)C)cc3)ccc2/C=C/C(=O)O)cc1" please?
high value

Hi there! Could you help me figure out the category for "CC(C)(C)c1ccc(Oc2cc(Nc3ccc(OC(F)(F)F)cc3)ccc2/C=C/C(=O)O)cc1" please?
high value

Hi there! Could you help me figure out the category for "O=C(O)/C=C/c1ccc(-c2ccc(OC(F)(F)F)cc2)cc1OC(c1ccccc1)c1ccccc1" please?
medium value

Hi there! Could you help me figure out the category for "O=C(O)CCc1ccc(-c2ccc(OC(F)(F)F)cc2)cc1OCCCSc1ccccc1" please?
low value

Hi there! Could you help me figure out the category for "CC(C)(C)c1ccc(Sc2cc(-c3ccc(OC(F)(F)F)cc3)ccc2CCC(=O)O)cc1" please?
high value

Hi there! Could you help me figure out the category for "CC(C)(C)c1ccc(Oc2cc(-c3ccc(OC(F)(F)F)cc3)ccc2CCCC(=O)O)cc1" please?
high value

Hi there! Could you help me figure out the category for "Cc1cc(C)cc(-c2ccc(CCC(=O)O)c(Oc3ccc(C(C)(C)C)cc3)c2)c1" please?
low value

Hi there! Could you help me figure out the category for "CSc1ccc(-c2ccc(OCC(=O)O)c(Oc3ccc(C(C)(C)C)cc3)c2)cc1" please?
low value

Hi there! Could you help me figure out the category for "CC(C)(C)c1cccc(Oc2cc(-c3cccc(OC(F)(F)F)c3)ccc2/C=C/C(=O)O)c1" please?
high value

Hi there! Could you help me figure out the category for "CCCCCCCOc1ccc(-c2ccc(OC(F)(F)F)cc2)cc1N(CCCCc1ccccc1)C(=O)C(=O)O" please?
high value

Hi there! Could you help me figure out the category for CC(Oc1cc(-c2ccc(OC(F)(F)F)cc2)ccc1CCC(=O)O)c1ccccc1 (stereo not shown) please?
low value

Hi there! Could you help me figure out the category for "CC(C)(C)c1ccc(Oc2cc(-c3ccc(OC(F)(F)F)cc3)ccc2N(CCCCc2ccccc2)C(=O)C(=O)O)cc1" please?
low value

Hi there! Could you help me figure out the category for "CCCCCOc1ccc(-c2ccc(OC(F)(F)F)cc2)cc1CN(C(=O)C(=O)O)c1ccc(C(C)(C)C)cc1" please?
high value

Hi there! Could you help me figure out the category for "CC(C)(C)c1ccc(Oc2ccc(Nc3ccc(OC(F)(F)F)cc3)cc2CCC(=O)O)cc1" please?
low value

Hi there! Could you help me figure out the category for "CC(C)(C)c1ccc(-c2ccc(OCC(=O)O)c(Oc3cccc(C(C)(C)C)c3)c2)cc1" please?
medium value

Hi there! Could you help me figure out the category for "CCC(C)(C)c1ccc(Oc2cc(-c3ccc(OC(F)(F)F)cc3)ccc2CCC(=O)O)cc1" please?
high value

Hi there! Could you help me figure out the category for "CCCCOc1ccc(-c2ccc(OCC(=O)O)c(Oc3ccc(C(C)(C)C)cc3)c2)cc1" please?
medium value

Hi there! Could you help me figure out the category for "CC(C)(C)c1ccc(Oc2cc(OCC(=O)O)cc(-c3ccc(OC(F)(F)F)cc3)c2)cc1" please?
low value

====

Assign Inhibition Rate of PAI-1 Activity (%) to each entry below.
biological target: recombinant human PAI-1 (Homo sapiens, UniProt P05121); construct: purchased Molecular Innovations, Inc; assay: Test Example 2: human PAI-1 inhibitory activity (tPA fluorogenic substrate, pH 7.4 HEPES buffer); assay type: biochemical; settings: human PAI-1; compound concentration 0.3 μM
State just the number; it will be interpreted in %.

For CCCCC(C(=O)O)N(Cc1ccc(C(C)(C)C)cc1)c1ccc(-c2ccc(OC(F)(F)F)cc2)cc1 (stereo not shown) , what is its reported Inhibition Rate of PAI-1 Activity (%)?
57

For CCCCC(C(=O)O)N(Cc1ccc(C(C)(C)C)cc1)c1cccc(-c2ccc(OC(F)(F)F)cc2)c1 (stereo not shown) , what is its reported Inhibition Rate of PAI-1 Activity (%)?
53

For "CC(C)c1ccc(Oc2cc(-c3ccc(OC(F)(F)F)cc3)ccc2/C=C/C(=O)O)cc1" , what is its reported Inhibition Rate of PAI-1 Activity (%)?
22

For "CC(C)(C)c1ccc(Oc2cc(Nc3ccc(OC(F)(F)F)cc3)ccc2CCC(=O)O)cc1" , what is its reported Inhibition Rate of PAI-1 Activity (%)?
59

For "CCCCCOc1ccc(-c2ccc(OC(F)(F)F)cc2)cc1CN(C(=O)C(=O)O)c1ccc(C(C)(C)C)cc1" , what is its reported Inhibition Rate of PAI-1 Activity (%)?
26

For "CC(C)(C)c1ccc(Oc2cc(-c3ccc(OC(F)(F)F)cc3)ccc2/C=C\C(=O)O)cc1" , what is its reported Inhibition Rate of PAI-1 Activity (%)?
11

For "CCCCCOc1cc(-c2ccc(OC(F)(F)F)cc2)ccc1CN(C(=O)C(=O)O)c1ccc(C(C)(C)C)cc1" , what is its reported Inhibition Rate of PAI-1 Activity (%)?
23

Where do the numbers come from? From patent US8633245B2.
